- Assayed System: recombinant human OX40 fused to a His-tag (Acro Biosystems, cat. no. OX0-H5224) (human) (UniProt P43489)
- Sequence (P43489 29-214 limits assumed): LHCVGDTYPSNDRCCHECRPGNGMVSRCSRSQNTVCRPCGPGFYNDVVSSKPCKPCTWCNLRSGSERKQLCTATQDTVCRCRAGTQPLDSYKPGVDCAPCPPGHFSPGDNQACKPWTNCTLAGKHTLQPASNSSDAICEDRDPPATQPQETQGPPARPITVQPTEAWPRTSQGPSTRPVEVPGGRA
- Assay Notes: BLI cross-block; first Ab (competitor): IgG1-CD134-11D4
Property Label: association response (nm)
Give bare numbers, in nm.

Exercise: So what does the record say about association response for IgG1-CD134-ABBV368 (antibody, INN chains, looked up, V domains shown, IgG1) VH: EVQLVESGGGLVQPGGSLRLSCAASGFTFSRYGMSWVRQAPGKGLELVATINSNGGRTYYPDSVKGRFTISRDNAKNSLYLQMNSLRAEDTAVYYCAREGITTAYAMDYWGQGTTVTVSS VL: DIVMTQSPDSLAVSLGERATINCKASQSVDYDGDSYMHWYQQKPGQPPKLLIYAASILESGVPDRFSGSGSGTDFTLTISSLQAEDVAVYYCQQSNEDPRTFGGGTKVEIK ?
Key: 0.13
